- Study System: Potassium voltage-gated channel subfamily KQT member 1 (Homo sapiens)
- Measurement Notes: KCNQ1 potassium channel potentiators, confirmation, FluxOR thallium flux, CHO cells, duplicates (AID 493007);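 for outcome: cells depolarized by a potassium plus thallium sulfate stimulus after compound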
- Run Parameters: KCNQ1 cell line, FluxOR thallium flux fluorescence, at 10 µM, % of reference activator effect, buffer zero
Active and inactive are the calls of the source.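 Rule for the calls: active = potentiation averaged over duplicate wells exceeding buffer-only control mean by more than 3 SD; inactive = the rest.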
Hi there, use one of these labels in your reply, thanks! True = active, False = inactive

Kindly provide the recorded test outcome for the following molecule: Oc1c(N=NC(=S)Nc2ccccc2F)c2ccccc2n1Cc1ccccc1F True

Another molecule to look at: O=C(NNc1ncc(C(F)(F)F)cc1Cl)c1c(Cl)cccc1Cl False

Another molecule to look at: CCOC(=O)Cc1csc(NC(=S)NC(=O)c2ccccc2C)n1 True

Another molecule to look at: CCc1cc(=O)oc2cc(OC(C)C(=O)NCC(O)c3ccccc3)c(Cl)cc12 (stereo not drawn) False

Another molecule to look at: CCCCOC(=O)c1cc(C)nc2ccc(Br)cc12 True

Another molecule to look at: CCCCCCCCCCCCC/C=C/[C@@H](O)[C@@H](N)CO True

Another molecule to look at: CC(=O)Oc1c(-c2ccc(Br)o2)oc2ccccc2c1=O True

Another molecule to look at: COc1ccc(N2CCN(C(=O)COC(=O)/C=C/c3ccc(OC(F)F)cc3)CC2)cc1 True

Another molecule to look at: O=C(c1cccc(-c2ccccc2F)c1)N1CC[C@@H](N2CCC(O)CC2)[C@H](O)C1 False

Another molecule to look at: COc1ccc(CN2CCCC(CNC(=O)c3ccc(F)cc3)C2)c(C)c1C (stereo not drawn) False

Another molecule to look at: CC(NC(=O)c1ccccc1Cl)C1CC2CCC1C2 (stereo not drawn) False

Another molecule to look at: CC(C)(C)NC(=O)C(=O)NNC(=O)COc1ccc(Br)cc1 True

Another molecule to look at: C=CCn1c(=S)[nH]c2sc3c(c2c1=O)CCCC3 True

Another molecule to look at: Cc1ccc(C(=O)CC(=O)COc2ccc(Cl)cc2)cc1 True

Another molecule to look at: O=C(CCc1ccccc1)Nc1nccs1 False

Another molecule to look at: Cc1onc(-c2ccccc2)c1C(=O)NC(=S)Nc1sc2c(c1C#N)CCCC2 True

Another molecule to look at: COc1ccc(C2c3ccc4ccccc4c3Oc3ncn(CCN4CCOCC4)c(=N)c32)cc1 (stereo not drawn) False

Another molecule to look at: O=c1c(Cl)c(Cl)cnn1Cc1nnc(-c2ccccc2Br)o1 False

Another molecule to look at: CN(Cc1cn[nH]c1-c1ccc2c(c1)OCO2)C1CCOCC1 False

Another molecule to look at: Cc1cccc(C(=O)Nc2ccccc2C(=O)NCc2cccnc2)c1 False

Another molecule to look at: S=c1[nH]nc(-c2ccco2)n1/N=C/c1ccc(Cl)c(Cl)c1 True

Another molecule to look at: CCNc1nc(NCC)nc(C(=O)OCCO)n1 False

Another molecule to look at: CCOc1ccc(OCCCN(C)C)cc1 False

----------
- Measurement Notes: thallium flux activation in parental CHO cells, counter-screen for KCNQ1 potentiator project (AID 493006);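 for activation: fluorescence ratio of max minus min over baseline after K+ and Tl+ depolarization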
- Run Parameters: parental CHO-K1 cells, FluxOR thallium flux, at 10 µM
Active and inactive are the calls of the source.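 The calls were made as follows: active = duplicate-averaged activation above buffer control mean plus 5 SD of those controls; inactive = the rest.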
Hi there, use one of these labels in your reply, thanks! 1 (active), -1 (inactive)

Kindly provide the recorded test outcome for the following molecule: Fc1ccc(-n2cc(-c3ccccc3)c3c(=S)nc[nH]c32)cc1 -1

Another molecule to look at: CCOC(=O)c1c(-c2ccccc2)csc1NC(=S)NC 1

Another molecule to look at: CCCCCn1c(=O)c2ccccc2n2c(=S)[nH]nc12 1

Another molecule to look at: CCCc1nc(SCC(=O)Nc2cc(Cl)ccc2OC)c2c(=O)n(C)c(=O)n(C)c2n1 -1

Another molecule to look at: COc1cc(OC)cc(C(=O)Nc2nnc(SCC(=O)NCc3ccco3)s2)c1 1
